# ASSAY METHOD TEXT: Oral bioavailability in rat at […], iv and po
# Type: ADME, organism-based
# TEST PARAMETERS: in vivo
MEASURED METRIC: bioavailability (%)

{"CHEMICAL STRUCTURE": "CCOCCCNC(=O)[C@H](CC(C)C)Nc1cc(C)nc(-n2cnc(-c3ccc(OC(F)(F)F)cc3)c2)n1", "OBSERVED MEASUREMENT": 22}

a = CCOCCCNC(=O)[C@H](CC(C)C)Nc1cc(CC)nc(-n2cnc(-c3ccc(OC(F)(F)F)cc3)c2)n1
b = CCCc1cc(N[C@@H](CC(C)C)C(=O)NCCCOCC)nc(-n2cnc(-c3ccc(OC(F)(F)F)cc3)c2)n1
QUERY: I would appreciate it if you could say which entry, a or b , has the lower bioavailability value. Write down the label attached to your selection.
RESULT: a
(a: 18%, b: 33%)

----------
# ASSAY METHOD TEXT: Clearance in dog at 2 umol/kg, iv and 4 umol/kg, po
# Type: ADME, organism-based, Canis lupus familiaris
# TEST PARAMETERS: in vivo
MEASURED METRIC: clearance (mL/min/kg)
I only need the number, in mL/min/kg, no unit after it.

QUERY: What measured clearance goes with "CCCc1cc(N[C@@H](CC(C)C)C(=O)NCCCOCC)nc(-n2cnc(-c3ccc(OC(F)(F)F)cc3)c2)n1" ?
RESULT: 12.1

----------
# ASSAY METHOD TEXT: Cmax in dog at 4 umol/kg, po
# Assay type: ADME, organism-based, Canis lupus familiaris
# Set-up: dose 4 umol/kg, route oral
# TEST PARAMETERS: in vivo
MEASURED METRIC: Cmax (nM)
I only need the number, in nM, no unit after it.

QUERY: What measured Cmax goes with "CCCc1cc(N[C@@H](CC(C)C)C(=O)NCCCOCC)nc(-n2cnc(-c3ccc(OC(F)(F)F)cc3)c2)n1" ?
RESULT: 300

----------
# ASSAY METHOD TEXT: Cmax in rat at 4 umol/kg, po
# Assay type: ADME, organism-based
# Design: dose 4 umol/kg, route oral
# TEST PARAMETERS: in vivo
MEASURED METRIC: Cmax (nM)
I only need the number, in nM, no unit after it.

QUERY: What measured Cmax goes with "CCCc1cc(N[C@@H](CC(C)C)C(=O)NCCCOCC)nc(-n2cnc(-c3ccc(OC(F)(F)F)cc3)c2)n1" ?
RESULT: 660

----------
# ASSAY METHOD TEXT: Volume of distribution in rat at 4 umol/kg, iv and po
# Format: ADME, organism-based
# TEST PARAMETERS: in vivo, read-out: Vdss
MEASURED METRIC: Vd (L/kg)
I only need the number, in L/kg, no unit after it.

QUERY: What measured Vd goes with "CCCc1cc(N[C@@H](CC(C)C)C(=O)NCCCOCC)nc(-n2cnc(-c3ccc(OC(F)(F)F)cc3)c2)n1" ?
RESULT: 1.99

----------
# TARGET OR SYSTEM: C-X-C chemokine receptor type 2 (Homo sapiens, UniProt P25025)
# Sequence (P25025 whole entry): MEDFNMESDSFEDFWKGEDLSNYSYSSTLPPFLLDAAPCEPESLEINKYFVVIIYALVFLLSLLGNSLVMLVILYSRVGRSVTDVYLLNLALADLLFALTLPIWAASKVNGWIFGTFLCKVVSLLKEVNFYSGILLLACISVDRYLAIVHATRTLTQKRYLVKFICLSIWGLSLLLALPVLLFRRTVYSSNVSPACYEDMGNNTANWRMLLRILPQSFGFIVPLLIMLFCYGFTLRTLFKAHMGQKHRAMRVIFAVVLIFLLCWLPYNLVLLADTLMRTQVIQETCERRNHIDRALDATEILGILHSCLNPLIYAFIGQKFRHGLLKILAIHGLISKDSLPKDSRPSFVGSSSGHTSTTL
# ASSAY METHOD TEXT: Binding affinity to human CXCR2 receptor transfected in CHO cell
MEASURED METRIC: Ki (nM)

A = CCCCc1cc(N[C@@H](CC(C)C)C(=O)NCCCOCC)nc(-n2cnc(-c3ccc(N)cc3)c2)n1
B = CCCc1cc(N[C@@H](CC(C)C)C(=O)NCCCOCC)nc(-n2cnc(-c3ccccc3OC(F)(F)F)c2)n1
QUERY: Identify the entry with the larger Ki. Options: A and B Write down the label attached to your selection.
RESULT: A
(A: 600 nM, B: 50 nM)

----------
# TARGET OR SYSTEM: C-X-C chemokine receptor type 2 (Homo sapiens)
# ASSAY METHOD TEXT: Binding affinity to human CXCR2 receptor transfected in CHO cell
pKi: −log10 of the molar value.
MEASURED METRIC: pKi

Answered examples (5):
{"CHEMICAL STRUCTURE": "CCCc1cc(N[C@@H](CC(C)C)C(=O)NCCCOCC)nc(-n2cnc(-c3ccc(OC(F)(F)F)cc3)c2)n1", "OBSERVED MEASUREMENT": 7.60}
{"CHEMICAL STRUCTURE": "CCOCCCNC(=O)[C@H](CC(C)C)Nc1cc(C(C)(C)C)nc(-n2ccnc2)n1", "OBSERVED MEASUREMENT": 5.22}
{"CHEMICAL STRUCTURE": "CCCCc1cc(N[C@@H](CC(C)C)C(=O)NCCCOCC)nc(-n2cnc(-c3ccc(Cl)cc3)c2)n1", "OBSERVED MEASUREMENT": 7.57}
{"CHEMICAL STRUCTURE": "CCCCc1cc(N[C@@H](CC(C)C)C(=O)NCCCOCC)nc(-n2cnc(-c3ccc(C#N)cc3)c2)n1", "OBSERVED MEASUREMENT": 7.37}
{"CHEMICAL STRUCTURE": "CCCCCCCCc1cc(N[C@@H](CC(C)C)C(=O)NCCCOCC)nc(-n2ccnc2)n1", "OBSERVED MEASUREMENT": 6.92}

A = CCOCCCNC(=O)[C@H](CC(C)C)Nc1cc(C)nc(-n2cnc(-c3ccc(OC(F)(F)F)cc3)c2)n1
B = CCCCc1cc(N[C@@H](CC(C)C)C(=O)NCCCOCC)nc(-n2cnc(-c3ccc(C(F)(F)F)cc3)c2)n1
QUERY: I would appreciate it if you could say which entry, A or B , has the lower pKi value. Write down the label attached to your selection.
RESULT: A

----------
# TARGET OR SYSTEM: C-X-C chemokine receptor type 2 (Homo sapiens)
# ASSAY METHOD TEXT: Binding affinity to human CXCR2 receptor transfected in CHO cell
pKi: −log10 of the molar value.
MEASURED METRIC: pKi

{"CHEMICAL STRUCTURE": "CCCc1cc(N[C@@H](CC(C)C)C(=O)NCCCOCC)nc(-n2cnc(-c3cccc(OC(F)(F)F)c3)c2)n1", "OBSERVED MEASUREMENT": 7.46}
{"CHEMICAL STRUCTURE": "CCOCCCNC(=O)[C@H](CC(C)C)Nc1ccnc(-n2cnc(-c3ccc(OC(F)(F)F)cc3)c2)n1", "OBSERVED MEASUREMENT": 6.70}

P = CCCCc1cc(N[C@@H](CC(C)C)C(=O)NCCCOCC)nc(-n2cnc(-c3ccc(O)cc3)c2)n1
Q = CCCCCCCCSc1cc(N[C@@H](CC(C)C)C(=O)NCCCOCC)nc(-n2ccnc2)n1
QUERY: Identify the entry with the larger pKi. Options: P and Q Write down the label attached to your selection.
RESULT: P

P = CCCCc1cc(N[C@@H](CC(C)C)C(=O)NCCCOCC)nc(-n2cnc(C)c2)n1
Q = CCCCc1cc(N[C@@H](CC(C)C)C(=O)NCCCOCC)nc(-n2ccnc2)n1
R = CCCCc1cc(N[C@@H](CC(C)C)C(=O)NCCCOCC)nc(-n2cnc(-c3ccc([N+](=O)[O-])cc3)c2)n1
QUERY: // smallest pKi at index 0, largest at the end Returns: the labels listed in the requested order.
RESULT: Q, R, P
(Q: 5.77, R: 6.80, P: 7.05)

I = CCCCc1cc(N[C@@H](CC(C)C)C(=O)NCCCOCC)nc(-n2cnc(-c3ccccc3)c2)n1
II = CCCCc1cc(N[C@@H](CC(C)C)C(=O)NCCCOCC)nc(-n2cnc(-c3ccc(C)cc3)c2)n1
QUERY: Identify the entry with the larger pKi. Options: I and II Write down the label attached to your selection.
RESULT: II
(II: 7.40, I: 7.00)

----------
# TARGET OR SYSTEM: C-X-C chemokine receptor type 2 (Homo sapiens)
# ASSAY METHOD TEXT: Binding affinity to human CXCR2 receptor transfected in CHO cell
# Type: cell-based
MEASURED METRIC: Ki (nM)

{"CHEMICAL STRUCTURE": "CCCCc1cc(N[C@@H](CC(C)C)C(=O)NCCCOCC)nc(-n2cnc(-c3ccc(OC)cc3)c2)n1", "Ki [nM]": 42}

P = CCCCc1cc(N[C@@H](CC(C)C)C(=O)NCCCOCC)nc(-n2cnc(-c3ccc(F)cc3)c2)n1
Q = CCCCc1cc(N[C@@H](CC(C)C)C(=O)NCCCOCC)nc(-n2cnc(-c3ccc(OC(F)(F)F)cc3)c2)n1
QUERY: Identify the entry with the larger Ki. Options: P and Q Write down the label attached to your selection.
RESULT: P
